# System: Odoribacter splanchnicus
# test: growth AUC relative to DMSO control (median of replicates) (fraction); higher = more growth (less inhibition), active = hit call of the paper
# test-context: 20 µM; 24 h

{"columns": ["compound", "growth AUC"],
 "data": [
  ["N#Cc1c[nH]cc1-c1cccc(Cl)c1Cl", "0.732 (inactive)"],
  ["c1cc2ccc3cccc4ccc(c1)c2c34", "1 (inactive)"],
  ["CCCN(CC)CC1COC2(CCC(C(C)(C)C)CC2)O1 (centres undefined)", "0.978 (inactive)"],
  ["CSc1nnc(C(C)(C)C)c(=O)n1N", "1.05 (inactive)"],
  ["CCOC(=O)C(Cl)Cc1cc(-n2nc(C)n(C(F)F)c2=O)c(F)cc1Cl (centres undefined)", "0.988 (inactive)"],
  ["O=C(NCCc1ncc(C(F)(F)F)cc1Cl)c1ccccc1C(F)(F)F", "0.985 (inactive)"],
  ["CCOCCN(C(=O)CCl)C(=C(C)C)c1ccccc1", "0.978 (inactive)"],
  ["O=S(=O)(c1ccccc1)c1ccccc1", "0.999 (inactive)"],
  ["CCOP(=S)(OCC)Oc1cnccn1", "1.04 (inactive)"],
  ["O=S(=O)(Oc1ccc(Cl)cc1)c1ccc(Cl)cc1", "0.983 (inactive)"],
  ["COP(=O)(OC)C(O)C(Cl)(Cl)Cl (centres undefined)", "0.965 (inactive)"],
  ["ClC1=C(Cl)C2(Cl)C3COCC3C1(Cl)C2(Cl)Cl (centres undefined)", "0.99 (inactive)"],
  ["CC(Cc1ccc(C(C)(C)C)cc1)CN1CCCCC1 (centres undefined)", "1.05 (inactive)"],
  ["Nc1cc(Cl)cc(C(=O)O)c1Cl", "1.09 (inactive)"],
  ["CNC(=O)Oc1cccc2c1OC(C)(C)O2", "1.02 (inactive)"],
  ["CCOP(=S)(OCC)SCn1c(=O)oc2cc(Cl)ccc21", "0.979 (inactive)"],
  ["O.[Br-].[Br-].c1cc[n+]2c(c1)-c1cccc[n+]1CC2", "0.937 (inactive)"],
  ["Nc1cnn(-c2ccccc2)c(=O)c1Cl", "0.949 (inactive)"],
  ["CCC(CC)Nc1c([N+](=O)[O-])cc(C)c(C)c1[N+](=O)[O-]", "1.11 (inactive)"],
  ["CCOCn1c(-c2ccc(Cl)cc2)c(C#N)c(Br)c1C(F)(F)F", "0.951 (inactive)"],
  ["O=[N+]([O-])c1c(Cl)c(Cl)cc(Cl)c1Cl", "1.02 (inactive)"],
  ["CC1(C)OC(c2ccco2)CN1C(=O)C(Cl)Cl (centres undefined)", "1.05 (inactive)"],
  ["O=C(O)COc1nc(Cl)c(Cl)cc1Cl", "0.992 (inactive)"],
  ["Fc1ccc(Oc2ccnc3cc(Cl)cc(Cl)c23)cc1", "1 (inactive)"]
]}
